# Test system: NCI-H23
# Measurement notes: NCI tumour cell line growth inhibition, 48 h
Activity calls are given as the source filed them. Cut-off read from the data, not from the text of the source: active = GI50 up to about 1.1 µM and inactive = higher.
Mark one answer only. Choices: active, inactive

Worked cases, answers included:
O=C(CCN1CCN(c2cccc(Cl)c2)CC1)N1CCc2c([nH]c3ccccc23)C1c1cccnc1 (stereo not drawn)	inactive
CN1CCN(c2cc3nsnc3c3nsnc23)CC1	inactive
Cc1csc2nc3c(cnn3C)c(=S)n12	inactive
Cc1cccc(NC(=S)Nc2ccc(Cl)cc2)n1	inactive
Cc1ccc(S(=O)(=O)N2CCSCCSCCSCCN(S(=O)(=O)c3ccc(C)cc3)CC2)cc1	inactive

Lookup: Could you please tell me the result logged for Nc1ncnn2c(C3OC(CO)C(O)C3O)ccc12 (stereo not drawn) in this assay?
Found: active

---

# System: SK-MEL-2
# Measurement notes: NCI tumour cell line growth inhibition, 48 h
Active and inactive are the calls of the source. Cut-off read from the data, not from the text of the source: active = GI50 up to about 1.1 µM and inactive = higher.
Measured GI50 values are reported for all entries that follow.

Please review the entries below; each comes with its answer.
COc1ccc(/N=N/c2c(C)c(C#N)c(=S)n(C3OC(COC(C)=O)C(OC(C)=O)C(OC(C)=O)C3OC(C)=O)c2-c2ccccc2)cc1 (centres undefined)	8.04 µM (inactive)
CC(OC1CC(=O)CC2C(=O)C=CC(=O)C12)c1ccccc1 (centres undefined)	19.7 µM (inactive)
COc1cc(OC)c2ssc3c(OC)cc(OC)c4ssc1c2-c43	> 100 µM (inactive)

Lookup: Quote GI50 reported for CCOC(=O)C1=C(C)C2C3C(=O)OC(=O)C3C1(C)C1C(=O)OC(=O)C21 (centres undefined) please.
Found: > 100 µM (inactive)

Lookup: Quote GI50 reported for COc1ccc(N2C(=O)C3c4[nH]c5c(C)cccc5c4C4CCC(C(C)(C)C)CC4C3C2=O)cc1 (centres undefined) please.
Found: > 10 µM (inactive)

Lookup: Quote GI50 reported for COC(=O)C(CCSC)NC(=O)CNC(=O)CSc1nnc(COc2ccc(Cl)cc2)n1-c1ccccc1 (centres undefined) please.
Found: 15.4 µM (inactive)

Lookup: Quote GI50 reported for CCC1([N+](=O)[O-])CC2C=CC1C2 (centres undefined) please.
Found: > 100 µM (inactive)

Lookup: Quote GI50 reported for `Cc1ccc(C(=O)c2[nH]c(NCc3ccccc3)c(C(=S)Nc3ccccc3)c2N)cc1` please.
Found: 10.8 µM (inactive)

Lookup: Quote GI50 reported for `CCCCC/C(C=O)=C\c1ccccc1` please.
Found: > 100 µM (inactive)

Lookup: Quote GI50 reported for `COc1c2cc(C(C)(C)C)cc1Cc1cccc(c1OCc1cccc([N+](=O)[O-])c1)Cc1cc(C(C)(C)C)cc(c1OC)Cc1cccc(c1OCc1cccc([N+](=O)[O-])c1)Cc1cc(C(C)(C)C)cc(c1OC)Cc1cccc(c1OCc1cccc([N+](=O)[O-])c1)C2` please.
Found: > 50 µM (inactive)

Lookup: Quote GI50 reported for CC(=O)C1=C(O)C(N)C2Cc3c(c(O)c4c(O)c(C)ccc4c3C)C(=O)C2(O)C1=O (centres undefined) please.
Found: 3.56 µM (inactive)

---

Measured GI50 values are reported for all entries that follow.
# Test system: UACC-62
# Measurement notes: NCI tumour cell line growth inhibition, 48 h
Activity calls are given as the source filed them. Rule as the data show it: active = GI50 up to about 1.1 µM and inactive = higher.

Please review the entries below; each comes with its answer.
OC(c1ccccc1)C1CC2C=CC1C2 (configuration not stated)	> 100 µM (inactive)
O=C(O)Cc1nc[nH]c1C(=O)O	> 100 µM (inactive)

Lookup: Quote GI50 reported for `Cn1c(N)cc(=O)nc1N` please.
Found: > 100 µM (inactive)

Lookup: Quote GI50 reported for COC(=O)CCC1(NS(=O)(=O)c2ccc(C)cc2)CCC(C(C)(C)C)CC1 (configuration not stated) please.
Found: 11.9 µM (inactive)

Lookup: Quote GI50 reported for `COC(=O)[C@H](COC(C)(C)C)NC(=O)N[C@H](C)c1ccccc1` please.
Found: > 100 µM (inactive)

---

Measured GI50 values are reported for all entries that follow.
# Tested on: SNB-75
# Measurement notes: NCI tumour cell line growth inhibition, 48 h
Active and inactive are the calls of the source. No stated cut-off is given here; in the data, active = GI50 up to about 1.1 µM and inactive = higher.

Lookup: Quote GI50 reported for O=S(=O)(CCC[C@H]1[C@@H](CCOCc2ccccc2)C2CCCN1O2)c1ccccc1 (stereo not given in full) please.
Found: > 100 µM (inactive)

---

# System: SF-539
# Measurement notes: NCI tumour cell line growth inhibition, 48 h
The source made the active and inactive calls. Rule as the data show it: active = GI50 up to about 1.1 µM and inactive = higher.
Mark one answer only. Choices: active, inactive

Worked cases, answers included:
O=c1oc2ccccc2c(O)c1C(C/C(CCN1CCCC1)=N/O)c1ccccc1 (stereo unspecified)	inactive
CCCC(=O)NC(Nc1ccc(S(=O)(=O)Nc2ccc(OC)nn2)cc1)(C(F)(F)F)C(F)(F)F	inactive
COc1cc(C2c3cc4c(cc3OC(NNc3ccccc3)C2C)OCO4)cc(OC)c1OC (stereo unspecified)	active

Lookup: Could you please tell me the result logged for `CC(C)(C)O/N=C/c1cc(NC(=S)c2ccccc2)ccc1Cl` in this assay?
Found: inactive

Lookup: Could you please tell me the result logged for `COc1ccc(CCNC2=CC(=O)c3ncccc3C2=O)cc1OC` in this assay?
Found: inactive

Lookup: Could you please tell me the result logged for `CSC1(SC)CCCCCCCCCCC1` in this assay?
Found: inactive

---

Measured GI50 values are reported for all entries that follow.
# Test system: M19-MEL
# Measurement notes: NCI tumour cell line growth inhibition, 48 h
Activity calls are given as the source filed them. Rule as the data show it: active = GI50 up to about 1.1 µM and inactive = higher.

Please review the entries below; each comes with its answer.
C#CC[C@]12CC(=O)CC[C@H]1CC1(C2)OCCO1	> 100 µM (inactive)
CCN(CC)CCNc1ccc2ncn3c4ccc(OC)cc4c(=O)c1c23	3.73 µM (inactive)
CSC1(C)CC2C(CC1N1CCCCC1)C2(C)C (configuration not stated)	> 100 µM (inactive)
CC(Cl)(/C=C/Cl)C(Cl)/C=C/C(Cl)(CCl)CBr (configuration not stated)	3.12 µM (inactive)
CC(=O)CC[N+](C)(C)C	23.3 µM (inactive)

Lookup: Name the recorded GI50 of `CCCC(=O)c1ccc(=O)n(C)c1` , assay system M19-MEL.
Found: > 100 µM (inactive)

Lookup: Name the recorded GI50 of `Nc1c(Cl)ncnc1NCCCNc1ncnc(Cl)c1N` , assay system M19-MEL.
Found: > 100 µM (inactive)

Lookup: Name the recorded GI50 of O=C(CC1(O)C(=O)Nc2ccc([N+](=O)[O-])cc21)c1ccc2ccccc2c1 (configuration not stated) , assay system M19-MEL.
Found: > 100 µM (inactive)

Lookup: Name the recorded GI50 of O=[N+]([O-])c1nccn1CC(O)CN1CC1 (configuration not stated) , assay system M19-MEL.
Found: 63.4 µM (inactive)

Lookup: Name the recorded GI50 of O=C1NC(=O)C2C(=O)NC(=O)C1C2Cc1ccco1 (configuration not stated) , assay system M19-MEL.
Found: > 100 µM (inactive)

Lookup: Name the recorded GI50 of `Cc1cc(C)c2c(c1)CSCc1cc(C)cc(C)c1-2` , assay system M19-MEL.
Found: 25.1 µM (inactive)

Lookup: Name the recorded GI50 of O=C(CC(=O)N1N=C(N2c3ccccc3Sc3ccccc32)CC1c1ccccc1)Nc1ccc(Cl)cc1 (configuration not stated) , assay system M19-MEL.
Found: > 100 µM (inactive)

---

# System: HCC 2998
# Measurement notes: NCI tumour cell line growth inhibition, 48 h
Active and inactive are the calls of the source. Rule as the data show it: active = GI50 up to about 1.1 µM and inactive = higher.
Mark one answer only. Choices: yes (active), no (inactive)

Worked cases, answers included:
C1CCC2C(C1)CCCC2NC1=NCCO1 (stereo unspecified)	no
CC1(C)C=C(/C=N/Nc2ccccc2)C(C#N)=C(O)C1(C#N)C#N	no
COc1cc(C2c3cc4c(cc3OC(NNc3ccccc3)C2C)OCO4)cc(OC)c1OC (stereo unspecified)	yes

Lookup: Could you please tell me the result logged for `COc1ccc(/C=C2\N=C(c3ccccc3)OC2=O)cc1OC(C)=O` in this assay?
Found: no

Lookup: Could you please tell me the result logged for O=C1CC(C[C@H](O)C2CCCCC2O)CC(=O)N1Cc1ccccc1 (stereo partly specified) in this assay?
Found: no

Lookup: Could you please tell me the result logged for `Fc1ccc(/N=C2C=C/C(=N\c3ccc(F)cc3)c3ccccc3\2)cc1` in this assay?
Found: no

---

# Test system: A498
# Measurement notes: NCI tumour cell line growth inhibition, 48 h
Active and inactive are the calls of the source. Rule as the data show it: active = GI50 up to about 1.1 µM and inactive = higher.
Mark one answer only. Choices: yes for active, no for inactive

Worked cases, answers included:
COC(=O)Cc1ccc2c(c1)Sc1ccc(CC(=O)OC)cc1N2C	no
O=C1CC2CCCCC2=C1O (configuration not stated)	no
Fc1ccc(F)c(C2SCc3nc4ccccc4n32)c1 (configuration not stated)	no
COC(=O)CCC1(NS(=O)(=O)c2ccc(C)cc2)CCC(C(C)(C)C)CC1 (configuration not stated)	no
COc1cc(C2SCC(=O)N2c2cccc(Cl)c2)cc(OC)c1OC (configuration not stated)	no
O=C1C(Cl)=C(N2CCN(CCOCCO)CC2)C(=O)c2ccccc21	no
N#C/C(=C1\SC(/N=N/c2ccccc2)C(=O)N1c1ccccc1)c1nc2ccccc2[nH]1 (configuration not stated)	no
O=C1CC(C[C@H](O)C2CCCCC2O)CC(=O)N1Cc1ccccc1 (some centres not stated)	no

Lookup: Could you please tell me the result logged for COc1cc(C2c3cc4c(cc3[C@@H](Nc3ccc5c(c3)OCCO5)C3COC(=O)[C@H]23)OCO4)cc(OC)c1O (some centres not stated) in this assay?
Found: yes

Lookup: Could you please tell me the result logged for CC1(C)C2CCC3CC(CCC#N)CCC3C21C#N (configuration not stated) in this assay?
Found: no

Lookup: Could you please tell me the result logged for CSc1ccc2c(cc1=O)C(NC(=O)c1cc(O)c(OC(=O)O)c(O)c1)CCc1cc(O)c(O)c(O)c1-2 (configuration not stated) in this assay?
Found: no

Lookup: Could you please tell me the result logged for CCN(CC)CCO/N=C1/C=C2CCC3C(CC[C@@]4(C)C3CC[C@]4(C)O)[C@@]2(C)CC1 (some centres not stated) in this assay?
Found: yes

Lookup: Could you please tell me the result logged for `COc1ccc(OC)c2c(=S)c3ccccc3[nH]c12` in this assay?
Found: no

Lookup: Could you please tell me the result logged for N#CC1C(=O)N(c2ccccc2)NC12OC(=O)c1ccncc12 (configuration not stated) in this assay?
Found: no

Lookup: Could you please tell me the result logged for CC(=O)C1=C(O)C(N)C2Cc3c(c(O)c4c(O)c(C)ccc4c3C)C(=O)C2(O)C1=O (configuration not stated) in this assay?
Found: no

Lookup: Could you please tell me the result logged for CCOC(=O)N1CC2(C)C=CC1C(C(=O)OC)C2 (configuration not stated) in this assay?
Found: no

Lookup: Could you please tell me the result logged for `C=C(Cl)CN1c2ccccc2C=Cc2ccccc21` in this assay?
Found: no

Lookup: Could you please tell me the result logged for `O=C(O)c1cccc(OCCOc2cccc(C(=O)O)c2[N+](=O)[O-])c1[N+](=O)[O-]` in this assay?
Found: no

Lookup: Could you please tell me the result logged for `N#Cc1c(N2CCCC2)ncn(-c2ccccc2)c1=O` in this assay?
Found: no

Lookup: Could you please tell me the result logged for `CC#Cc1ccc(-c2ccccc2)s1` in this assay?
Found: no

Lookup: Could you please tell me the result logged for N#CC1=C(S)N(C2OC(CO)C(O)C(O)C2O)C(c2ccccc2)=CC1c1ccccc1 (configuration not stated) in this assay?
Found: no

Lookup: Could you please tell me the result logged for `O/N=C1\CC2(N3CCOCC3)CCC1(c1ccccc1)CC2` in this assay?
Found: no

Sourced from ChEMBL document CHEMBL1201862
